FYI, the data here is from PubChem BioAssay (NCI).

- Test system: OVCAR-5 ovarian
- ASSAY TEXT: NCI-60 one-dose screen, 48 h (100 = growth as untreated, 0 = no growth, -100 = all killed)
- MEASUREMENT CONTEXT: 10 µM unless noted
This is part of a sample that, as a whole, favours compounds with a hit. Of some 83,000 tested, about 20% had one in any assay.
Kind request: treat 70% as inclusive, so growth at 70% or higher is True, anything lower is False.

## Task Decide: is the reported value of growth for `CC(C)(C)CC(C)(C)c1ccc(OCCOCCSC(=N)N)cc1` equal to or greater than 70%?
## Result True

## Task API: above_or_equal(metric=growth, cutoff=70%) for item CCC(C)C(N)C(=O)NC(CC(N)=O)C(=O)NC(CC(C)C)C(=O)NC(CCCCN)C(=O)NC(C)C(=O)NC(CC(C)C)C(=O)NC(C)C(=O)NC(C)C(=O)NC(CC(C)C)C(=O)NC(C)C(=O)NC(CCCCN)C(=O)NC(CCCCN)C(=O)NC(C(=O)NC(CC(C)C)C(N)=O)C(C)CC (configuration not stated)
## Result True

## Task growth >= 70% for `COc1cc(-c2ccc(-[n+]3nc(-c4ccc([N+](=O)[O-])cc4)nn3-c3ccc([N+](=O)[O-])cc3)c(OC)c2)ccc1-[n+]1nc(-c2ccc([N+](=O)[O-])cc2)nn1-c1ccc([N+](=O)[O-])cc1` ?
## Result False
